Measured values drawn from paper PMC9399118 for this set.

target: histamine H2 receptor (H2R) (Homo sapiens, UniProt P25021); construct: full-length receptor expected in commercial panel cell line (Eurofins/DiscoverX SafetyScan47); assay: cell-based SafetyScan47 dose-response assay, […] doses; conditions: read-out: half-maximal inhibitory concentration
Sequence (P25021 whole entry): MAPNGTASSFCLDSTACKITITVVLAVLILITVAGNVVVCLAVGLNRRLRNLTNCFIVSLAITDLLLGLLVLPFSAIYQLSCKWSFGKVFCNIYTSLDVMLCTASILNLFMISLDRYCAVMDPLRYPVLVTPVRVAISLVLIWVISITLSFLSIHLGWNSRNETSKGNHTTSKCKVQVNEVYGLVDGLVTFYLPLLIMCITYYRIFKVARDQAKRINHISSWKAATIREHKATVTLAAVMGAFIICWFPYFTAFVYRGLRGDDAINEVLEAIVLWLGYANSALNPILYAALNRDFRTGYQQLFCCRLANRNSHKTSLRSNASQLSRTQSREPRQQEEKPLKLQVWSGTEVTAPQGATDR
Measurement type: pIC50
Interpret pIC50 as the negative base-10 log of the concentration measured in mol/L.

Lab entry: histamine H2 receptor (H2R) (Homo sapiens, UniProt P25021) assay, molecule CCCCCCCCCCCCCCC(=O)O[C@H](CC(=O)[O-])C[N+](C)(C)C , pIC50 = 5.21

----------
target: serotonin 1A receptor (5-HT1A) (Homo sapiens, UniProt P08908); construct: full-length receptor expected in commercial panel cell line (Eurofins/DiscoverX SafetyScan47); experiment: cell-based SafetyScan47 dose-response assay, […] doses; conditions: read-out: half-maximal effective concentration
Sequence (P08908 whole entry): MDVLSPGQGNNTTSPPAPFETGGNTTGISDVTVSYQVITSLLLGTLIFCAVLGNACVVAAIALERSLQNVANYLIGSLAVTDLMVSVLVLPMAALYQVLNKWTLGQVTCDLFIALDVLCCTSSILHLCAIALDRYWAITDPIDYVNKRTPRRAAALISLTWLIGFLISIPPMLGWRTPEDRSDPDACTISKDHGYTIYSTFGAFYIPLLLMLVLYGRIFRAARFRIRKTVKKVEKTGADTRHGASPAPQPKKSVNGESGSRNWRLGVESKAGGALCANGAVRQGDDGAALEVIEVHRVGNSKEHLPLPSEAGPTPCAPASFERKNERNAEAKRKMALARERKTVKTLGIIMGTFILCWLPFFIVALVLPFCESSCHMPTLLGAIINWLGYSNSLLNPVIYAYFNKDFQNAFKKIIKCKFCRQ
Measurement type: pEC50
Value format note: pEC50 is -log10 of concentration (mol/L); just state the number.

Memo: CCCCCCCCCCCCCCC(=O)O[C@H](CC(=O)[O-])C[N+](C)(C)C , reported pEC50: 5.02

----------
molecular target: histamine H1 receptor (H1R) (Homo sapiens, UniProt P35367); construct: gene HRH1; full-length receptor expected in commercial panel cell line (Eurofins/DiscoverX SafetyScan47); experiment: cell-based SafetyScan47 dose-response assay, […] doses; conditions: read-out: half-maximal inhibitory concentration
Sequence (P35367 whole entry): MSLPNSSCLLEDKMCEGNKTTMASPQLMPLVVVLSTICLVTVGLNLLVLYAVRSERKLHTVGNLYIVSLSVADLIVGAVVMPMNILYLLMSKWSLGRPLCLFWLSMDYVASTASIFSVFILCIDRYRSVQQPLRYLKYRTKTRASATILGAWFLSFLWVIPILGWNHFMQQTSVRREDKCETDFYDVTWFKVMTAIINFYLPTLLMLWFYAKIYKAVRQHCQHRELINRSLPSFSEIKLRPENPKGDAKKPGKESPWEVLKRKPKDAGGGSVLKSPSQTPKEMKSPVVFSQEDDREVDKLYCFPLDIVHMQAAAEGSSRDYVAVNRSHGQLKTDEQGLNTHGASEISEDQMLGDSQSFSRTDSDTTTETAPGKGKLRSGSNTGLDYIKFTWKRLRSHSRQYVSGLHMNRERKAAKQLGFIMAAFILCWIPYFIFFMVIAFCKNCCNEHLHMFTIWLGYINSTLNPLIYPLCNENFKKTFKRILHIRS
Measurement type: pIC50
Field pIC50 (float): negative decimal logarithm of the concentration in molar.

Looking up CCCCCCCCCCCCCCC(=O)O[C@H](CC(=O)[O-])C[N+](C)(C)C [pentadecanoylcarnitine] , I found its pIC50 recorded as 4.96
